Biological target: D(2) dopamine receptor (Homo sapiens)
Sequence (P14416 whole entry): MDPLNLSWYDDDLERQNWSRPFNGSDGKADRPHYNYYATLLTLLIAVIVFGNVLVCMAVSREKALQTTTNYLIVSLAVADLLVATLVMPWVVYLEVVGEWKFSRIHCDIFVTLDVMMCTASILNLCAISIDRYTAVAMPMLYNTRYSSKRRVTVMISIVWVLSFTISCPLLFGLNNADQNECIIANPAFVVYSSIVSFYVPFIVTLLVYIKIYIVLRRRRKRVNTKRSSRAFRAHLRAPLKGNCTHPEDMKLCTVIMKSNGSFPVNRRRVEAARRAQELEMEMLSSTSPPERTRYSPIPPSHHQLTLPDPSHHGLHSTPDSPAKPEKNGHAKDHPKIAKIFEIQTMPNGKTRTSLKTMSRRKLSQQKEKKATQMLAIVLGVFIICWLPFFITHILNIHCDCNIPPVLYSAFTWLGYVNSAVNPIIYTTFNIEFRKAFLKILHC
Experiment: Inhibition of dopamine D2 receptor (unknown origin) at 10 uM by PDSP assay relative to control
Entries annotated with measured inhibition

Guide cases for inhibition, answers given:
[[record]]
compound = "CN(Cc1cccc(F)c1)[C@H]1C2C3CC4C2C(=O)C2C4C3C21 (some centres undefined)"
measurement_kind = "inhibition"
recorded_measurement = "< 50%"

[[record]]
compound = "CN(CCc1ccccn1)[C@H]1C2C3CC4C5C3CC2C5C41 (some centres undefined)"
measurement_kind = "inhibition"
recorded_measurement = "< 50%"

[[record]]
compound = "CN(Cc1cccnc1)[C@H]1C2C3CC4C5C3CC2C5C41 (some centres undefined)"
measurement_kind = "inhibition"
recorded_measurement = "< 50%"


With those in mind, consider the next compound.
Sure, the documented inhibition for CN(CC1CCCCC1)[C@H]1C2C3CC4C5C3CC2C5C41 (some centres undefined) is < 50%
